molecular target: human TLR7 (Homo sapiens (Human), UniProt Q9NYK1); assay: HEK293-Blue-hTLR-7 cells assay (SEAP reporter); details: 20 hours incubation
Sequence (Q9NYK1 27-1049): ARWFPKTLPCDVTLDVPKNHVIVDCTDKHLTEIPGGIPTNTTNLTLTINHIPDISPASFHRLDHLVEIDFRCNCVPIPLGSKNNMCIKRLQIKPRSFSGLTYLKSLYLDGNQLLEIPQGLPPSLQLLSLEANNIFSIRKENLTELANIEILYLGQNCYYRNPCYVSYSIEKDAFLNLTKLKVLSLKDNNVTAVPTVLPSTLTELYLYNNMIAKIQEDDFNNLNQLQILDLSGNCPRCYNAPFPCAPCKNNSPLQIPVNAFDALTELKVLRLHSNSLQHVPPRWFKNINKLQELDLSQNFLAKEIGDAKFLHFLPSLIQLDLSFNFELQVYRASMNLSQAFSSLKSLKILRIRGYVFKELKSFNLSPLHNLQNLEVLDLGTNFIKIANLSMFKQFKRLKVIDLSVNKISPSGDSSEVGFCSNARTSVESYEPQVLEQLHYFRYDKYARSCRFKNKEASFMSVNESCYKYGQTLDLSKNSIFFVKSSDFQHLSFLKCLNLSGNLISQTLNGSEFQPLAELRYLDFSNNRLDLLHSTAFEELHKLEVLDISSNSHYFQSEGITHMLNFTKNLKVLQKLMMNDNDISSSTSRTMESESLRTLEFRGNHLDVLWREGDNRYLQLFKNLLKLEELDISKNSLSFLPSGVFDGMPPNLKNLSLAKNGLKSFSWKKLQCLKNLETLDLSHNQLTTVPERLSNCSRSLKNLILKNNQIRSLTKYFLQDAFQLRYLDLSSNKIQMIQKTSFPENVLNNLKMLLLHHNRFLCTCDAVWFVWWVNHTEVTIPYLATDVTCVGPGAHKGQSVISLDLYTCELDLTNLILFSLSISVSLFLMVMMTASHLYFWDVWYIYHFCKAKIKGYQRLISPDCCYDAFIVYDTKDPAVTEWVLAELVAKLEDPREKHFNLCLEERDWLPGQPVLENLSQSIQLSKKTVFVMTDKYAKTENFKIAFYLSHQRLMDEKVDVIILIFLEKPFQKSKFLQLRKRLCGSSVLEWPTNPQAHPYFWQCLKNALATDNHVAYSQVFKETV
test.readout: EC50 (µM)

a: CCOC(=O)O[C@H](C)[C@@H]1C[C@@H]([C@@H](O)CC)O[C@H]1n1c(=O)sc2c(=O)[nH]c(N)nc21
b: Nc1nc2c(sc(=O)n2[C@@H]2O[C@H](CO)C[C@H]2C(O)c2ccccc2Cl)c(=O)[nH]1 (single isomer, unassigned)
IN: Just curious, which one has the larger EC50 reading, a or b ? Pick one and reply with its label.
OUT: b
(b: 79 µM, a: 26 µM)

---

target: human TLR7 (Homo sapiens (Human)); experiment: HEK293-Blue-hTLR-7 cells assay (SEAP reporter); settings: 20 hours incubation
test.readout: EC50 (µM)

{"compound": "COc1ccccc1C(O)[C@@H]1C[C@@H](CO)O[C@H]1n1c(=O)sc2c(=O)[nH]c(N)nc21 (single isomer, unassigned)", "test.readout": "EC50", "u": "µM", "measured.value": 111}

A: CC[C@H](O)[C@@H]1C[C@@H](C(C)(C)OC(C)=O)[C@H](n2c(=O)sc3c(=O)[nH]c(N)nc32)O1
B: CC[C@H](O)[C@@H]1C[C@@H]([C@H](C)OC)[C@H](n2c(=O)sc3c(=O)[nH]c(N)nc32)O1
C: CC[C@H](O)[C@@H]1C[C@@H]([C@H](O)c2ccccc2)[C@H](n2c(=O)sc3c(=O)[nH]c(N)nc32)O1 (single isomer, unassigned) [Example 18-B]
IN: Please produce an ascending ranking of these compounds based on EC50. Your answer should be the labels, listed in the requested order.
OUT: C, A, B
(C: 9.7 µM, A: 19 µM, B: 35 µM)
